B1: COX4I1 (parent)
chain: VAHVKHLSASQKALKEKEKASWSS

variants of: B1; assay: protein stability index of a GFP-peptide fusion (GPS, HEK-293T) (PSI 1-6); higher = more stable; details: c terminus: a fixed tail appended;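 note: lentivirally expressed fusions sorted by FACS into six bins by GFP to DsRed ratio, PSI derived from sequencing read proportions per bin multiplied by bin number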
Quick list: protein stability index per entry.
QUANTITY KIND: protein stability index

# MUT, QUANTITY KIND, ENDPOINT RESULT
rows = [
    ("K5T", "protein stability index", 3.66),
    ("S24T", "protein stability index", 3.57),
    ("V4T", "protein stability index", 4.15),
    ("V1D", "protein stability index", 3.98),
    ("A9W", "protein stability index", 2.47),
    ("K19D", "protein stability index", 3.85),
    ("H3N", "protein stability index", 4.5),
    ("K5H", "protein stability index", 2.93),
    ("S23T", "protein stability index", 2.91),
    ("A9K", "protein stability index", 3.07),
    ("K5N", "protein stability index", 3.45),
    ("K5W", "protein stability index", 2.65),
    ("S23R", "protein stability index", 3.22),
    ("V1P", "protein stability index", 3.53),
    ("S24P", "protein stability index", 4.36),
]
